# Tested on: NCI-H929 complex spheroids, viability % test/control
# assay_overview: Anticancer human tumor NCI-H929 cell line growth inhibition [RAS];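 note: compound exposure lasted seven days before viability was read; 100% = DMSO vehicle control viability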
# condition_description: second compound 0.3 µM; first compound 1 µM; stronger effect = lower value
measured_parameter: viability, T/C

State its viability, T/C: CC1(O)CCCC1n1c(=O)c(C(F)F)cc2cnc(NC3CCN(S(C)(=O)=O)CC3)nc21 (stereo not given) + CCn1c(-c2cccnc2C(C)OC)c2c3cc(ccc31)N1CCOC(CC(NC(=O)C(C(C)C)N(C)C(=O)C3(F)CCN(C(=O)C#CC(C)(C)N(C)C)CC3)C(=O)N3CCCC(N3)C(=O)OCC(C)(C)C2)C1 2.31%

Return viability, T/C (reported value) for this molecule: CC(=O)OC12COC1CC(O)C1(C)C(=O)C(O)C3=C(C)C(OC(=O)C(O)C(NC(=O)OC(C)(C)C)c4ccccc4)CC(O)(C(OC(=O)c4ccccc4)C21)C3(C)C (stereo not given) + CCn1c(-c2cc(N3CCN(C)CC3)cnc2C(C)OC)c2c3cc(ccc31)-c1csc(n1)CC(NC(=O)C1CC1C)C(=O)N1CCCC(N1)C(=O)OCC(C)(C)C2 0.72%

Assign viability, T/C to the following record: CCN1CCN(Cc2ccc(Nc3ncc(F)c(-c4cc(F)c5nc(C)n(C(C)C)c5c4)n3)nc2)CC1 + CCn1c(-c2cccnc2C(C)OC)c2c3cc(ccc31)N1CCOC(CC(NC(=O)C(C(C)C)N(C)C(=O)C3(F)CCN(C(=O)C#CC(C)(C)N(C)C)CC3)C(=O)N3CCCC(N3)C(=O)OCC(C)(C)C2)C1 11.2%

Respond only with viability, T/C recorded for C=CC(=O)N1CCN(c2nc(OCC3CCCN3C)nc3c(F)c(-c4nc(N)cc(C)c4C(F)(F)F)c(Cl)cc23)C(C)C1 (stereo not given) + CCn1c(-c2cc(N3CCN(C)CC3)cnc2C(C)OC)c2c3cc(ccc31)-c1csc(n1)CC(NC(=O)C1CC1C)C(=O)N1CCCC(N1)C(=O)OCC(C)(C)C2 3.26%

Kindly indicate its recorded viability, T/C. Item: Cc1nc(N2CCC3(CC2)COC(C)C3N)c(CO)nc1Sc1ccnc(N)c1Cl (stereo not given) + CCn1c(-c2cccnc2C(C)OC)c2c3cc(ccc31)N1CCOC(CC(NC(=O)C(C(C)C)N(C)C(=O)C3(F)CCN(C(=O)C#CC(C)(C)N(C)C)CC3)C(=O)N3CCCC(N3)C(=O)OCC(C)(C)C2)C1 99.7%

Given O=C(c1ccc(F)c(F)c1Nc1ccc(I)cc1F)N1CC(O)([C@@H]2CCCCN2)C1 + CCn1c(-c2cc(N3CCN(C)CC3)cnc2C(C)OC)c2c3cc(ccc31)-c1csc(n1)CC(NC(=O)C1CC1C)C(=O)N1CCCC(N1)C(=O)OCC(C)(C)C2 , respond with its viability, T/C. 0.68%

Identify viability, T/C associated with the molecule NC1c2ccccc2OC12CCN(c1cnc3c(N4CCCc5ncccc54)n[nH]c3n1)CC2 (stereo not given) + CCn1c(-c2cc(N3CCN(C)CC3)cnc2C(C)OC)c2c3cc(ccc31)-c1csc(n1)CC(NC(=O)C1CC1C)C(=O)N1CCCC(N1)C(=O)OCC(C)(C)C2 0.89%

Please report viability, T/C for the following molecule: CC(=O)OC12COC1CC(O)C1(C)C(=O)C(O)C3=C(C)C(OC(=O)C(O)C(NC(=O)OC(C)(C)C)c4ccccc4)CC(O)(C(OC(=O)c4ccccc4)C21)C3(C)C (stereo not given) + CCn1c(-c2cccnc2C(C)OC)c2c3cc(ccc31)N1CCOC(CC(NC(=O)C(C(C)C)N(C)C(=O)C3(F)CCN(C(=O)C#CC(C)(C)N(C)C)CC3)C(=O)N3CCCC(N3)C(=O)OCC(C)(C)C2)C1 0.6%

Input C=CC(=O)N1CCN(c2nc(OCC3CCCN3C)nc3c(F)c(-c4nc(N)cc(C)c4C(F)(F)F)c(Cl)cc23)C(C)C1 (stereo not given) + CCn1c(-c2cccnc2C(C)OC)c2c3cc(ccc31)N1CCOC(CC(NC(=O)C(C(C)C)N(C)C(=O)C3(F)CCN(C(=O)C#CC(C)(C)N(C)C)CC3)C(=O)N3CCCC(N3)C(=O)OCC(C)(C)C2)C1 , output reported viability, T/C. 103%

In one line, give reported viability, T/C of the entry O=C(c1ccc(F)c(F)c1Nc1ccc(I)cc1F)N1CC(O)([C@@H]2CCCCN2)C1 + CCn1c(-c2cccnc2C(C)OC)c2c3cc(ccc31)N1CCOC(CC(NC(=O)C(C(C)C)N(C)C(=O)C3(F)CCN(C(=O)C#CC(C)(C)N(C)C)CC3)C(=O)N3CCCC(N3)C(=O)OCC(C)(C)C2)C1 . 8.18%

Supply viability, T/C value. Item: CC(Nc1ccc2c(c1)OCCn1cc(N3C(=O)OCC3C(F)F)nc1-2)C(N)=O (stereo not given) + CCn1c(-c2cccnc2C(C)OC)c2c3cc(ccc31)N1CCOC(CC(NC(=O)C(C(C)C)N(C)C(=O)C3(F)CCN(C(=O)C#CC(C)(C)N(C)C)CC3)C(=O)N3CCCC(N3)C(=O)OCC(C)(C)C2)C1 86%

Input Cc1nc(N2CCC3(CC2)COC(C)C3N)c(CO)nc1Sc1ccnc(N)c1Cl (stereo not given) + CCn1c(-c2cc(N3CCN(C)CC3)cnc2C(C)OC)c2c3cc(ccc31)-c1csc(n1)CC(NC(=O)C1CC1C)C(=O)N1CCCC(N1)C(=O)OCC(C)(C)C2 , output reported viability, T/C. 3.05%

Return value of viability, T/C for input Nc1ccn(C2OC(CO)C(O)C2(F)F)c(=O)n1 (stereo not given) + CCn1c(-c2cccnc2C(C)OC)c2c3cc(ccc31)N1CCOC(CC(NC(=O)C(C(C)C)N(C)C(=O)C3(F)CCN(C(=O)C#CC(C)(C)N(C)C)CC3)C(=O)N3CCCC(N3)C(=O)OCC(C)(C)C2)C1 , no commentary. 0.8%

Supply viability, T/C value. Item: CC(C)NCC(C(=O)N1CCN(c2ncnc3c2C(C)CC3O)CC1)c1ccc(Cl)cc1 (stereo not given) + CCn1c(-c2cc(N3CCN(C)CC3)cnc2C(C)OC)c2c3cc(ccc31)-c1csc(n1)CC(NC(=O)C1CC1C)C(=O)N1CCCC(N1)C(=O)OCC(C)(C)C2 0.57%

Entry CCC(CC)c1cc(NC2CCC(N)C2)n2nccc2n1 (stereo not given) + CCn1c(-c2cc(N3CCN(C)CC3)cnc2C(C)OC)c2c3cc(ccc31)-c1csc(n1)CC(NC(=O)C1CC1C)C(=O)N1CCCC(N1)C(=O)OCC(C)(C)C2 needs its viability, T/C filled in; supply it. 1.37%

---

# System: NCI-H929 complex spheroids, viability % test/control
# assay_overview: Anticancer human tumor NCI-H929 cell line growth inhibition [RAS];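 note: compound exposure lasted seven days before viability was read; 100% = DMSO vehicle control viability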
# condition_description: second compound 0.0316 µM; first compound 0.1 µM; stronger effect = lower value
measured_parameter: viability, T/C (%)
Write it as a number; the unit % goes unstated.

Let me know recorded viability, T/C for CC1(O)CCCC1n1c(=O)c(C(F)F)cc2cnc(NC3CCN(S(C)(=O)=O)CC3)nc21 (stereo not drawn) + C#Cc1c(F)ccc2cc(O)cc(-c3ncc4c(N5CC6CCC(C5)N6)nc(OCC56CCCN5CC(F)C6)nc4c3F)c12 , thanks. 106

Report viability, T/C for CC(C)NCC(C(=O)N1CCN(c2ncnc3c2C(C)CC3O)CC1)c1ccc(Cl)cc1 (stereo not drawn) + C=CC(=O)N1CCN(c2nc(OCC3CCCN3C)nc3c(F)c(-c4nc(N)cc(C)c4C(F)(F)F)c(Cl)cc23)C(C)C1 103

Please supply the value of reported viability, T/C for the item O=C(c1ccc(F)c(F)c1Nc1ccc(I)cc1F)N1CC(O)([C@@H]2CCCCN2)C1 + C=CC(=O)N1CCN(c2nc(OCC3CCCN3C)nc3c(F)c(-c4nc(N)cc(C)c4C(F)(F)F)c(Cl)cc23)C(C)C1 95.2

---

# Test system: NCI-H929 complex spheroids, viability % test/control
# assay_overview: Anticancer human tumor NCI-H929 cell line growth inhibition [RAS];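 note: compound exposure lasted seven days before viability was read; 100% = DMSO vehicle control viability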
# condition_description: second compound 0.00949 µM; first compound 0.01 µM; stronger effect = lower value
measured_parameter: viability, T/C (%)
Answer in %, number only, no unit symbol.

Identify viability, T/C associated with the molecule CCN1CCN(Cc2ccc(Nc3ncc(F)c(-c4cc(F)c5nc(C)n(C(C)C)c5c4)n3)nc2)CC1 + CCn1c(-c2cccnc2C(C)OC)c2c3cc(ccc31)N1CCOC(CC(NC(=O)C(C(C)C)N(C)C(=O)C3(F)CCN(C(=O)C#CC(C)(C)N(C)C)CC3)C(=O)N3CCCC(N3)C(=O)OCC(C)(C)C2)C1 104

# return recorded viability, T/C for input O=C(c1ccc(F)c(F)c1Nc1ccc(I)cc1F)N1CC(O)([C@@H]2CCCCN2)C1 + CCn1c(-c2cccnc2C(C)OC)c2c3cc(ccc31)N1CCOC(CC(NC(=O)C(C(C)C)N(C)C(=O)C3(F)CCN(C(=O)C#CC(C)(C)N(C)C)CC3)C(=O)N3CCCC(N3)C(=O)OCC(C)(C)C2)C1 102

Look up and report measured viability, T/C for this entry: C=CC(=O)Nc1cc(Nc2nccc(-c3cn(C)c4ccccc34)n2)c(OC)cc1N(C)CCN(C)C + CCn1c(-c2cccnc2C(C)OC)c2c3cc(ccc31)N1CCOC(CC(NC(=O)C(C(C)C)N(C)C(=O)C3(F)CCN(C(=O)C#CC(C)(C)N(C)C)CC3)C(=O)N3CCCC(N3)C(=O)OCC(C)(C)C2)C1 101

Quick one: give measured viability, T/C for O=C(c1ccc(F)c(F)c1Nc1ccc(I)cc1F)N1CC(O)([C@@H]2CCCCN2)C1 + CCn1c(-c2cc(N3CCN(C)CC3)cnc2C(C)OC)c2c3cc(ccc31)-c1csc(n1)CC(NC(=O)C1CC1C)C(=O)N1CCCC(N1)C(=O)OCC(C)(C)C2 117

Give the reported viability, T/C for this molecule. CCN1CCN(Cc2ccc(Nc3ncc(F)c(-c4cc(F)c5nc(C)n(C(C)C)c5c4)n3)nc2)CC1 + CCn1c(-c2cc(N3CCN(C)CC3)cnc2C(C)OC)c2c3cc(ccc31)-c1csc(n1)CC(NC(=O)C1CC1C)C(=O)N1CCCC(N1)C(=O)OCC(C)(C)C2 116

Indicate its recorded viability, T/C; the molecule in question is CC(C)n1nc(-c2ccc3oc(N)nc3c2)c2c(N)ncnc21 + CCn1c(-c2cc(N3CCN(C)CC3)cnc2C(C)OC)c2c3cc(ccc31)-c1csc(n1)CC(NC(=O)C1CC1C)C(=O)N1CCCC(N1)C(=O)OCC(C)(C)C2 120

Please list viability, T/C recorded for the molecule Nc1ccn(C2OC(CO)C(O)C2(F)F)c(=O)n1 (configuration not stated) + CCn1c(-c2cc(N3CCN(C)CC3)cnc2C(C)OC)c2c3cc(ccc31)-c1csc(n1)CC(NC(=O)C1CC1C)C(=O)N1CCCC(N1)C(=O)OCC(C)(C)C2 6.62

Note down viability, T/C recorded for C=CC(=O)N1CCN(c2nc(OCC3CCCN3C)nc3c(F)c(-c4nc(N)cc(C)c4C(F)(F)F)c(Cl)cc23)C(C)C1 (configuration not stated) + CCn1c(-c2cc(N3CCN(C)CC3)cnc2C(C)OC)c2c3cc(ccc31)-c1csc(n1)CC(NC(=O)C1CC1C)C(=O)N1CCCC(N1)C(=O)OCC(C)(C)C2 115

Please supply the value of reported viability, T/C for the item CC(C)n1nc(-c2ccc3oc(N)nc3c2)c2c(N)ncnc21 + CCn1c(-c2cccnc2C(C)OC)c2c3cc(ccc31)N1CCOC(CC(NC(=O)C(C(C)C)N(C)C(=O)C3(F)CCN(C(=O)C#CC(C)(C)N(C)C)CC3)C(=O)N3CCCC(N3)C(=O)OCC(C)(C)C2)C1 99.8

Give reported viability, T/C value for Nc1ccn(C2OC(CO)C(O)C2(F)F)c(=O)n1 (configuration not stated) + CCn1c(-c2cccnc2C(C)OC)c2c3cc(ccc31)N1CCOC(CC(NC(=O)C(C(C)C)N(C)C(=O)C3(F)CCN(C(=O)C#CC(C)(C)N(C)C)CC3)C(=O)N3CCCC(N3)C(=O)OCC(C)(C)C2)C1 6.3

Output measured viability, T/C for this item: C=CC(=O)N1CCN(c2nc(OCC3CCCN3C)nc3c(F)c(-c4nc(N)cc(C)c4C(F)(F)F)c(Cl)cc23)C(C)C1 (configuration not stated) + CCn1c(-c2cccnc2C(C)OC)c2c3cc(ccc31)N1CCOC(CC(NC(=O)C(C(C)C)N(C)C(=O)C3(F)CCN(C(=O)C#CC(C)(C)N(C)C)CC3)C(=O)N3CCCC(N3)C(=O)OCC(C)(C)C2)C1 101

Give viability, T/C for the following molecule: C=CC(=O)Nc1cc(Nc2nccc(-c3cn(C)c4ccccc34)n2)c(OC)cc1N(C)CCN(C)C + CCn1c(-c2cc(N3CCN(C)CC3)cnc2C(C)OC)c2c3cc(ccc31)-c1csc(n1)CC(NC(=O)C1CC1C)C(=O)N1CCCC(N1)C(=O)OCC(C)(C)C2 112
